Record type: IC50 measurement. Applies to: HDAC-2 (Homo sapiens, UniProt Q92769)

### Prompt State recorded IC50 with HDAC-2 (Homo sapiens, UniProt Q92769), entry `Nc1ccccc1NC(=O)c1ccc(N2CC[C@H](NC(=O)OCCN3CCOCC3)C2)cc1` , no comment.
Sequence (Q92769 whole entry): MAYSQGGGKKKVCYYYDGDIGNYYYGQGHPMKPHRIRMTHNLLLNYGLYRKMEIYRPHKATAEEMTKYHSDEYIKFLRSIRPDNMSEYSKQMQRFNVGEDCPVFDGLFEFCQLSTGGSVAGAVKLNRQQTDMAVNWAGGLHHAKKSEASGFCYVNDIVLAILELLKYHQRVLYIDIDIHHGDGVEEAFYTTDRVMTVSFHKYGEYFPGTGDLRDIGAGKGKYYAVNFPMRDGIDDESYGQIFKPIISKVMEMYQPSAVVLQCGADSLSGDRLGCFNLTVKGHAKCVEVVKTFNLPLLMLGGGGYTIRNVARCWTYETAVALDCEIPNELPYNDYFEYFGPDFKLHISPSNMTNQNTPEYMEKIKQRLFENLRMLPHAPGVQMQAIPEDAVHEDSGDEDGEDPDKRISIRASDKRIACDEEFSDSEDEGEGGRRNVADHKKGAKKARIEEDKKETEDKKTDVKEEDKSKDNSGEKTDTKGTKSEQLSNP
### Response ≤ 1000 nM

### Prompt State recorded IC50 with HDAC-2 (Homo sapiens, UniProt Q92769), entry `CC(C)COC(=O)N[C@H]1CCN(c2ccc(C(=O)Nc3ccccc3N)cc2)C1` , no comment.
### Response ≤ 5000 nM

### Prompt State recorded IC50 with HDAC-2 (Homo sapiens, UniProt Q92769), entry `CCNC(=O)O[C@H]1CCN(c2ccc(C(=O)Nc3ccccc3N)cc2)C1` , no comment.
### Response ≤ 5000 nM

### Prompt State recorded IC50 with HDAC-2 (Homo sapiens, UniProt Q92769), entry `CCOC(=O)N[C@H]1CCN(c2ccc(C(=O)Nc3ccccc3N)cn2)C1` , no comment.
### Response ≤ 1000 nM

---

Answer each item with its documented IC50.
target: HDAC-2 (Homo sapiens, UniProt Q92769); assay: Similar assay measuring HDAC-2 inhibitory activity; type: biochemical

### Prompt Give IC50 for the following compound: CN(C)CC(=O)N[C@H]1CCN(c2ccc(C(=O)Nc3ccccc3N)cc2)C1 [Compound 141]
### Response ≤ 5000 nM

### Prompt Give IC50 for the following compound: Nc1ccccc1NC(=O)c1ccc(N2CC[C@H](NC(=O)OCc3ccccc3)C2)cc1 [Compound 124]
### Response ≤ 100 nM

### Prompt Give IC50 for the following compound: Nc1ccccc1NC(=O)c1ccc(N2CC[C@H](NC(=O)OCc3ccncc3)C2)cc1 [Compound 142]
### Response ≤ 500 nM

### Prompt Give IC50 for the following compound: Nc1ccccc1NC(=O)c1ccc(N2CC[C@H](NC(=O)N3CCOCC3)C2)cc1 [Compound 126]
### Response ≤ 1000 nM

### Prompt Give IC50 for the following compound: Nc1ccccc1NC(=O)c1ccc(N2CC[C@H](O)C2)cc1 [Compound 160]
### Response ≤ 1000 nM

### Prompt Give IC50 for the following compound: COCCOC(=O)N[C@H]1CCN(c2ccc(C(=O)Nc3ccccc3N)cn2)C1 [Compound 154]
### Response ≤ 5000 nM

### Prompt Give IC50 for the following compound: Nc1ccccc1NC(=O)c1ccc(N2CC[C@H](NC(=O)OCC3c4ccccc4-c4ccccc43)C2)cc1 [Compound 201]
### Response ≤ 500 nM

### Prompt Give IC50 for the following compound: COC(=O)N[C@H]1CCN(c2ccc(C(=O)Nc3ccccc3N)cc2)C1 [Compound 120]
### Response ≤ 500 nM

---

Record type: IC50 measurement. Applies to: HDAC-2 (Homo sapiens)

### Prompt Give IC50 for the following compound: `CN(C)CCOC(=O)N[C@H]1CCN(c2ccc(C(=O)Nc3ccccc3N)cc2)C1`
### Response ≤ 500 nM

### Prompt Give IC50 for the following compound: `Nc1ccccc1NC(=O)c1ccc(N2CC[C@H](NC(=O)OCC(F)(F)F)C2)cc1`
### Response ≤ 500 nM

### Prompt Give IC50 for the following compound: `COC(=S)N[C@H]1CCN(c2ccc(C(=O)Nc3ccccc3N)cc2)C1`
### Response ≤ 500 nM

### Prompt Give IC50 for the following compound: `Nc1ccccc1NC(=O)c1ccc(N2CC[C@H](NC(=O)NCc3cccnc3)C2)cc1`
### Response ≤ 1000 nM
